Assay System: Cannabinoid receptor 2 (Homo sapiens, UniProt P34972)
Sequence (P34972 whole entry): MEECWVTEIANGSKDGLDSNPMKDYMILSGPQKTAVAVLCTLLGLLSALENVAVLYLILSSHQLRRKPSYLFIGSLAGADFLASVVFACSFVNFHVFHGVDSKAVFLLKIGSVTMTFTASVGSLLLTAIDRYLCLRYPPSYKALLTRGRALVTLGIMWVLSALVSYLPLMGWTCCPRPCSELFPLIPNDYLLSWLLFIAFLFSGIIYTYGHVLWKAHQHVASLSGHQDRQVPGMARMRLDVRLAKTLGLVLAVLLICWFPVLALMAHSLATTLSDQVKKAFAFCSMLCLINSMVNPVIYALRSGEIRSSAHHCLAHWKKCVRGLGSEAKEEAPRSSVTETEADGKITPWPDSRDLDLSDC
Assay Summary: Displacement of [3H]HU-243 from human CB2 receptor assessed as inhibition constant

{"Structure Notation": "CCCCCc1cc(O)c(C/C=C(\\C)CCC=C(C)C)c(O)c1", "Assay System": "Cannabinoid receptor 2 (Homo sapiens, UniProt P34972)", "Unit Of Measurement": "nM", "Ki": 100}

====

Assay System: Cannabinoid receptor 1 (Homo sapiens, UniProt P21554)
Sequence (P21554 whole entry): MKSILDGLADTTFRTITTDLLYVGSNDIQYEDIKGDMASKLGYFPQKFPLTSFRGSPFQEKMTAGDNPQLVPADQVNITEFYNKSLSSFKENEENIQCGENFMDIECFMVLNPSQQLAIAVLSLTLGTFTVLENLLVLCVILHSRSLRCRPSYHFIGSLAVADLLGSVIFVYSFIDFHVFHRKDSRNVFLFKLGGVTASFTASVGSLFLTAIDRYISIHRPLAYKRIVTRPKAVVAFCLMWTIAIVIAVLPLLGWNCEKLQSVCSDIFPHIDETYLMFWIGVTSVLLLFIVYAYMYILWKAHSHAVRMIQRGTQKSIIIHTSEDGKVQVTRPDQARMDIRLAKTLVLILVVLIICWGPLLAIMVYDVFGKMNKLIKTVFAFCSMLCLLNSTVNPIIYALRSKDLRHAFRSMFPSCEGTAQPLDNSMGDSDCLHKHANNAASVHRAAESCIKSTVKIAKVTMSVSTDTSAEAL
Assay Summary: Displacement of [3H]CP55940 from human CB1 receptor assessed as inhibition constant
pKi: −log10 of the molar value.
Documented pKi across a set of molecules
Recorded Metric: pKi

{"Molecule": "CCCCCc1cc(O)c2c(c1)OC(C)(C)c1ccc(C)cc1-2", "Recorded Metric": "pKi", "Value": 7.00}
{"Molecule": "CCCc1cc(O)c2c(c1)OC(C)(C)[C@@H]1CCC(C)=C[C@@H]21 [TETRAHYDROCANNABIVARIN]", "Recorded Metric": "pKi", "Value": 7.10}
{"Molecule": "CCCCCc1cc(O)c(C/C=C(\\C)CCC=C(C)C)c(O)c1", "Recorded Metric": "pKi", "Value": 6.40}

====

Assay System: Cannabinoid receptor 1 (Homo sapiens, UniProt P21554)
Assay Summary: Displacement of [3H]CP55940 from CB1 receptor (unknown origin) assessed as inhibition constant measured after 90 mins

{"Compound": "CCCCCc1cc(O)c2c(c1)OC(C)(CCC=C(C)C)C=C2 (stereo unspecified)", "Unit Of Measurement": "nM", "Ki": 700}

====

Assay System: Cannabinoid receptor 2 (Homo sapiens)
Assay Summary: Binding affinity to CB2 receptor (unknown origin) assessed as inhibition constant measured after 90 mins
Recorded Metric: Ki (nM)

{"Molecule": "CCCCCc1cc(O)c2c(c1)OC(C)(CCC=C(C)C)C=C2 (stereo unspecified) [CANNABICHROMENE]", "Assay System": "Cannabinoid receptor 2 (Homo sapiens)", "Recorded Metric": "Ki", "Value": 200}

====

Assay System: UniProt P47746
Sequence (P47746 whole entry): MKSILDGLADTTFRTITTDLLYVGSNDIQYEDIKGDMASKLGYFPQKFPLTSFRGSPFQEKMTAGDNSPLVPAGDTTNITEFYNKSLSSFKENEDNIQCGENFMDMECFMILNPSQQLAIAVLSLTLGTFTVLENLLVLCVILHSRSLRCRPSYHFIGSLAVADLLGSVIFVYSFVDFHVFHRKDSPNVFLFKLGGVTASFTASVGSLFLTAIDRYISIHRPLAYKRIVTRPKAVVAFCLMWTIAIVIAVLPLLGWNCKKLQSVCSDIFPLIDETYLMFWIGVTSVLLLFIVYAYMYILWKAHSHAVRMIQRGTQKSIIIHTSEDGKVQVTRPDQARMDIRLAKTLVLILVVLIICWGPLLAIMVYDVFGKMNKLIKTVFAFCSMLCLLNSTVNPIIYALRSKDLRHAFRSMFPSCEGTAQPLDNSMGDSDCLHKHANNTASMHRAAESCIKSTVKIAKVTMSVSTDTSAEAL
pKi: −log10 of the molar value.
Recorded Metric: pKi

{"Structure Notation": "C=C(C)[C@@H]1CCC(C)=C[C@H]1c1c(O)cc(CCCCC)cc1O", "Value": 5.36}
